The origin of these recorded values is patent US20090004137A1.

system: subgenomic HCV replicon BM4-5 in Huh7 cells; experiment: Antiviral assay on HCV subgenomic replicon, Northern blot of (+)-strand HCV RNA; format: cell-based, Hepatitis C Virus; conditions: Hepatitis C virus, 72 h; Huh7 BM4-5 replicon, positive strand HCV RNA by Northern blot, three days treatment; read-out: IC50, anti-HCV activity, (+)-RNA
pIC50: −log10 of the molar value.
Could you please report measured pIC50 for the items listed next?

Answered cases to consult:
Looking for the measured pIC50 of O=c1[nH]c(=O)n([C@@H]2O[C@H](CO)C[C@H]2O)cc1/C(Br)=C\I [Compound 15c] , can you help?
< 3.70

What value of pIC50 has been reported for the following compound? O=c1[nH]c(=O)n([C@@H]2O[C@H](CO)[C@@H](O)[C@H]2O)cc1/C(Br)=C\I [Compound 15b, (E)-5-(1-Bromo-2-iodovinyl)-uridine]
< 4.00

Look at this compound and give its reported pIC50. O=c1[nH]c(=O)n([C@@H]2O[C@H](CO)C[C@H]2O)cc1C#CI [Compound 12c, 5-(2-Iodoethynyl)-3′-deoxyuridine]
< 3.70

Field: pIC50. Fill in for each record below.
1. O=c1[nH]c(=O)n([C@@H]2O[C@H](CO)C[C@H]2O)cc1/C(Br)=C\Br [Compound 17c, (E)-5-(1,2-Dibromovinyl)-3′-deoxyuridine]
2. O=c1[nH]c(=O)n([C@@H]2O[C@H](CO)[C@@H](O)[C@H]2O)cc1/C(I)=C\I [Compound 14b, (E)-5-(1,2-Diiodovinyl)-uridine]
3. O=c1[nH]c(=O)n([C@H]2C[C@H](O)[C@@H](CO)O2)cc1/C(I)=C\I [Compound 14a, (E)-5-(1,2-Diiodovinyl)-2′-deoxyuridine]

1: < 3.70; 2: 3.79; 3: < 3.79

---

experiment: Cell viability (neutral red) on the replicon system; assay type: cell-based; conditions: human, Huh7 cells harbouring the subgenomic HCV replicon BM4-5, neutral red test, drug renewed daily for three days, read-out: CC50, cytotoxicity on Replicon System
Reported property: CC50 at 3 days (µM)
Numbers only, in µM.

Before answering, review these 2 worked examples.
Given the entry O=c1[nH]c(=O)n([C@H]2C[C@H](O)[C@@H](CO)O2)cc1/C(Cl)=C\I [Compound 16a] , report its measured CC50 at 3 days.
213

Fill in the blank: the reported CC50 at 3 days of O=c1[nH]c(=O)n([C@@H]2O[C@H](CO)[C@@H](O)[C@H]2O)cc1C#CI [Compound 12b, 5-(2-Iodoethynyl)-uridine] is ____.
148

Others:
Can you look up the measured CC50 at 3 days of O=c1[nH]c(=O)n([C@H]2C[C@H](O)[C@@H](CO)O2)cc1/C(Br)=C\I [Compound 15a] for me?
43

---

Give log10 CC50 for every item shown.
experiment: Cytotoxicity against VERO cells; type: cell-based; details: African green monkey
# log10 transformed; quantity=CC50; unit=µM

Consider the following illustrative entries.
So what does the record say about log10 CC50 for O=c1[nH]c(=O)n([C@@H]2O[C@H](CO)C[C@H]2O)cc1/C(Br)=C\Br [Compound 17c, (E)-5-(1,2-Dibromovinyl)-3′-deoxyuridine] ?
0.89

For the compound shown here, O=c1[nH]c(=O)n([C@@H]2O[C@H](CO)C[C@H]2O)cc1/C(Cl)=C\I [Compound 16c] , give the reported log10 CC50.
1.18

Returns the measured log10 CC50 for the input compound. Input: O=c1[nH]c(=O)n([C@@H]2O[C@H](CO)C[C@H]2O)cc1C#CI [Compound 12c, 5-(2-Iodoethynyl)-3′-deoxyuridine]
0.51

# get_value(readout='log10 CC50', item= O=c1[nH]c(=O)n([C@@H]2O[C@H](CO)[C@@H](O)[C@H]2O)cc1/C(I)=C\I [Compound 14b, (E)-5-(1,2-Diiodovinyl)-uridine] )
1.69

Endpoint output: log10 CC50 of O=c1[nH]c(=O)n([C@@H]2O[C@H](CO)[C@@H](O)[C@H]2O)cc1/C(Br)=C\Br [Compound 17b, (E)-5-(1,2-Dibromovinyl)-uridine] . Value?
1.78

Give its log10 CC50 value. Item: O=c1[nH]c(=O)n([C@H]2C[C@H](O)[C@@H](CO)O2)cc1/C(Cl)=C\I [Compound 16a]
0.15

For every listed record, write down its log10 CC50.
1. O=c1[nH]c(=O)n([C@@H]2O[C@H](CO)C[C@H]2O)cc1C#CBr [Compound 13c, 5-(2-Bromoethynyl)-3′-deoxyuridine]
2. O=c1[nH]c(=O)n([C@@H]2O[C@H](CO)C[C@H]2O)cc1/C(I)=C\I [Compound 14c, (E)-5-(1,2-Diiodovinyl)-3′-deoxyuridine]
3. O=c1[nH]c(=O)n([C@H]2C[C@H](O)[C@@H](CO)O2)cc1/C(I)=C\I [Compound 14a, (E)-5-(1,2-Diiodovinyl)-2′-deoxyuridine]

0.81
1.63
1.29

Report log10 CC50 for O=c1[nH]c(=O)n([C@H]2C[C@H](O)[C@@H](CO)O2)cc1/C(Br)=C\I [Compound 15a] please.
0.82

---

experiment: Cytotoxicity against CEM cells; assay type: cell-based; details: human
Please provide measured CC50 for the entries that follow.

Record excerpt, results attached:
What CC50 value was documented for this compound, O=c1[nH]c(=O)n([C@H]2C[C@H](O)[C@@H](CO)O2)cc1C#CBr [Compound 13a, 5-(2-Bromoethynyl)-2′-deoxyuridine] ?
> 100 µM

Any idea what CC50 was measured for O=c1[nH]c(=O)n([C@H]2C[C@H](O)[C@@H](CO)O2)cc1/C(Br)=C\Br [Compound 17a, (E)-5-(1,2-Dibromovinyl)-2′-deoxyuridine] ?
43.9 µM

Continuing:
// returns reported CC50 for input O=c1[nH]c(=O)n([C@@H]2O[C@H](CO)[C@@H](O)[C@H]2O)cc1C#CBr [Compound 13b, 5-(2-bromoethynyl)-uridine]
> 100 µM

---

experiment: Cytotoxicity against CEM cells; type: cell-based; details: human
Give measured CC50 for each item. Keep answers brief.
One number for each entry, in µM.

// returns reported CC50 for input O=c1[nH]c(=O)n([C@@H]2O[C@H](CO)C[C@H]2O)cc1/C(Cl)=C\I [Compound 16c]
66.6

Entry O=c1[nH]c(=O)n([C@@H]2O[C@H](CO)C[C@H]2O)cc1/C(Br)=C\Br [Compound 17c, (E)-5-(1,2-Dibromovinyl)-3′-deoxyuridine] : reported CC50 = ?
79.3

Request the reported CC50 associated with O=c1[nH]c(=O)n([C@@H]2O[C@H](CO)C[C@H]2O)cc1/C(Br)=C\I [Compound 15c]
79.3

Query: CC50; subject: O=c1[nH]c(=O)n([C@@H]2O[C@H](CO)[C@@H](O)[C@H]2O)cc1/C(Br)=C\I [Compound 15b, (E)-5-(1-Bromo-2-iodovinyl)-uridine]
93.6

Let us examine a further case.
Any idea what CC50 was measured for O=c1[nH]c(=O)n([C@H]2C[C@H](O)[C@@H](CO)O2)cc1/C(Cl)=C\I [Compound 16a] ?
14.8

---

tested on: CEM cells; assay: Cytotoxicity against CEM cells; type: cell-based
Reported property: CC50

What measured CC50 goes with O=c1[nH]c(=O)n([C@@H]2O[C@H](CO)[C@@H](O)[C@H]2O)cc1/C(Cl)=C\I [Compound 16b, (E)-5-(l-Chloro-2-iodovinyl)-uridine] ?
> 100 µM

---

assay: Cytotoxicity against PBM cells; assay type: cell-based; conditions: human
With a cut-off of 70 µM, any CC50 strictly below it is called 1.0; any CC50 meeting it or above is called 0.0.

In the record for O=c1[nH]c(=O)n([C@@H]2O[C@H](CO)C[C@H]2O)cc1/C(Br)=C\Br [Compound 17c, (E)-5-(1,2-Dibromovinyl)-3′-deoxyuridine] , is CC50 less than 70 µM?
0.0

New cases:
Report whether reported CC50 is lower than 70 µM (strictly) for O=c1[nH]c(=O)n([C@@H]2O[C@H](CO)C[C@H]2O)cc1/C(I)=C\I [Compound 14c, (E)-5-(1,2-Diiodovinyl)-3′-deoxyuridine]
0.0

Here's an entry: O=c1[nH]c(=O)n([C@H]2C[C@H](O)[C@@H](CO)O2)cc1C#CBr [Compound 13a, 5-(2-Bromoethynyl)-2′-deoxyuridine] . Is its CC50 below 70 µM?
0.0

---

tested on: Huh7 cells harbouring the subgenomic HCV replicon BM4-5; assay: Cell viability (neutral red) on the replicon system; type: cell-based; conditions: neutral red test, drug renewed daily for three days, read-out: CC50, cytotoxicity on Replicon System
Reported property: CC50

Fill blank: measured CC50 of the compound O=c1[nH]c(=O)n([C@@H]2O[C@H](CO)[C@@H](O)[C@H]2O)cc1/C(Cl)=C\I [Compound 16b, (E)-5-(l-Chloro-2-iodovinyl)-uridine] is ____.
> 200 µM
